- setup conditions: bacteroides stercoris, 12 h, 2 µM;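 further: drug levels quantified by LC–MS at the start and end of incubation with the bacterium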
- Description: The drug is tested on Bacteroides stercoris strain: ATCC43183 for biotransformation. The drug concentrations were measured before and after a 12-h incubation by liquid-chromatography-coupled mass spectrometry (LC–MS)

{"molecule": "O=C(Nc1ccccc1)OCC(CN1CCCCC1)OC(=O)Nc1ccccc1 (centres undefined) [DIPERODON]", "Bacterial Biotransformation": "Compound NOT metabolized"}
{"molecule": "CCS(=O)(=O)CCn1c([N+](=O)[O-])cnc1C [TINIDAZOLE]", "Bacterial Biotransformation": "Compound metabolized"}
{"molecule": "CN1CCN2c3ccccc3Cc3ccccc3C2C1 (centres undefined) [MIANSERIN]", "Bacterial Biotransformation": "Compound NOT metabolized"}
{"molecule": "CC[C@@H](CO)NC(=O)[C@@H]1C=C2c3cccc4c3c(cn4C)C[C@H]2N(C)C1.O=C(O)/C=C\\C(=O)O [METHYSERGIDE MALEATE]", "Bacterial Biotransformation": "Compound metabolized"}
{"molecule": "CCCc1nn(C)c2c(=O)[nH]c(-c3cc(S(=O)(=O)N4CCN(C)CC4)ccc3OCC)nc12.O=C(O)CC(O)(CC(=O)O)C(=O)O [SILDENAFIL CITRATE]", "Bacterial Biotransformation": "Compound NOT metabolized"}
{"molecule": "CN(C(=O)CN(CCO)CC(=O)N(C)C(C)(C)Cc1ccccc1)C(C)(C)Cc1ccccc1 [OXETHAZAINE]", "Bacterial Biotransformation": "Compound NOT metabolized"}
{"molecule": "CC(C)C[C@H]1C(=O)N2CCC[C@H]2[C@]2(O)O[C@](NC(=O)[C@@H]3C=C4c5cccc6[nH]c(Br)c(c56)C[C@H]4N(C)C3)(C(C)C)C(=O)N12.CS(=O)(=O)O [BROMOCRIPTINE MESYLATE]", "Bacterial Biotransformation": "Compound metabolized"}
{"molecule": "CN1CCC[C@@H]1CCO[C@](C)(c1ccccc1)c1ccc(Cl)cc1.O=C(O)/C=C/C(=O)O [CLEMASTINE FUMARATE]", "Bacterial Biotransformation": "Compound metabolized"}
{"molecule": "Cc1ccc(-c2nc3ccc(C)cn3c2CC(=O)N(C)C)cc1 [ZOLPIDEM]", "Bacterial Biotransformation": "Compound NOT metabolized"}
{"molecule": "CC#C[C@]1(O)CC[C@H]2[C@@H]3CCC4=CC(=O)CCC4=C3[C@@H](c3ccc(N(C)C)cc3)C[C@@]21C [MIFEPRISTONE]", "Bacterial Biotransformation": "Compound metabolized"}
{"molecule": "C=CCc1ccccc1OCC(O)CNC(C)C (centres undefined) [ALPRENOLOL]", "Bacterial Biotransformation": "Compound NOT metabolized"}
{"molecule": "CCN(CC)CCCC(C)Nc1c2ccc(Cl)cc2nc2ccc(OC)cc12 (centres undefined) [QUINACRINE]", "Bacterial Biotransformation": "Compound NOT metabolized"}
{"molecule": "COc1ccc(/C=C/C(=O)Nc2ccccc2C(=O)O)cc1OC", "Bacterial Biotransformation": "Compound NOT metabolized"}
{"molecule": "CCC(C)n1ncn(-c2ccc(N3CCN(c4ccc(OCC5COC(Cn6cncn6)(c6ccc(Cl)cc6Cl)O5)cc4)CC3)cc2)c1=O (centres undefined) [ITRACONAZOLE]", "Bacterial Biotransformation": "Compound NOT metabolized"}
{"molecule": "CC(O)(CS(=O)(=O)c1ccc(F)cc1)C(=O)Nc1ccc(C#N)c(C(F)(F)F)c1 (centres undefined) [BICALUTAMIDE]", "Bacterial Biotransformation": "Compound NOT metabolized"}
{"molecule": "CN(C/C=C/C#CC(C)(C)C)Cc1cccc2ccccc12 [TERBINAFINE]", "Bacterial Biotransformation": "Compound NOT metabolized"}
{"molecule": "N[C@@H](Cc1ccc(N(CCCl)CCCl)cc1)C(=O)O", "Bacterial Biotransformation": "Compound metabolized"}
{"molecule": "Nc1nc(N)nc(-c2cc(Cl)ccc2Cl)n1.O=C(O)/C=C\\C(=O)O [IRSOGLADINE MALEATE]", "Bacterial Biotransformation": "Compound NOT metabolized"}
{"molecule": "CS(=O)(=O)O.OC(CCN1CCCCC1)(c1ccccc1)c1ccccc1 [PRIDINOL METHANESULFONATE]", "Bacterial Biotransformation": "Compound NOT metabolized"}
{"molecule": "O=C1NCC2(CCN(CCc3ccccc3)CC2)O1 [FENSPIRIDE]", "Bacterial Biotransformation": "Compound metabolized"}
{"molecule": "O=P1(N(CCCl)CCCl)NCCCO1 (centres undefined) [CYCLOPHOSPHAMIDE ANHYDROUS]", "Bacterial Biotransformation": "Compound NOT metabolized"}
{"molecule": "COC(=O)C1=C(C)NC(C)=C(C(=O)OC(C)C)C1c1cccc2nonc12 (centres undefined) [ISRADIPINE]", "Bacterial Biotransformation": "Compound NOT metabolized"}
{"molecule": "CS(=O)(=O)O.O.O.O.O=C1Cc2cc(CCN3CCN(c4nsc5ccccc45)CC3)c(Cl)cc2N1 [ZIPRASIDONE MESYLATE]", "Bacterial Biotransformation": "Compound NOT metabolized"}
{"molecule": "CCOC(=O)[C@H](CCc1ccccc1)N[C@H]1CCc2ccccc2N(CC(=O)O)C1=O [BENAZEPRIL]", "Bacterial Biotransformation": "Compound metabolized"}
{"molecule": "CN(C)CCOC(c1ccc(Cl)cc1)c1ccccn1.O=C(O)/C=C\\C(=O)O (centres undefined) [CARBINOXAMINE MALEATE]", "Bacterial Biotransformation": "Compound NOT metabolized"}
{"molecule": "CC(C)(Oc1ccc(CCNC(=O)c2ccc(Cl)cc2)cc1)C(=O)O [BEZAFIBRATE]", "Bacterial Biotransformation": "Compound metabolized"}
{"molecule": "Cc1nc2n(c(=O)c1CCN1CCC(c3noc4cc(F)ccc34)CC1)CCCC2O (centres undefined) [PALIPERIDONE]", "Bacterial Biotransformation": "Compound metabolized"}
{"molecule": "O=C(NC(Cc1cc(=O)[nH]c2ccccc12)C(=O)O)c1ccc(Cl)cc1 (centres undefined) [REBAMIPIDE]", "Bacterial Biotransformation": "Compound NOT metabolized"}
{"molecule": "O=C(CCCN1CCC(O)(c2ccc(Cl)cc2)CC1)c1ccc(F)cc1 [HALOPERIDOL]", "Bacterial Biotransformation": "Compound NOT metabolized"}
{"molecule": "Clc1ccc(Cn2c(CN3CCCC3)nc3ccccc32)cc1 [CLEMIZOLE]", "Bacterial Biotransformation": "Compound NOT metabolized"}
{"molecule": "COc1ccc(C(CN(C)C)C2(O)CCCCC2)cc1 (centres undefined) [VENLAFAXINE]", "Bacterial Biotransformation": "Compound NOT metabolized"}
{"molecule": "CCC1(c2ccc(N)cc2)CCC(=O)NC1=O (centres undefined) [AMINOGLUTETHIMIDE]", "Bacterial Biotransformation": "Compound NOT metabolized"}
{"molecule": "CNCC[C@H](Oc1cccc2ccccc12)c1cccs1 [DULOXETINE]", "Bacterial Biotransformation": "Compound metabolized"}
{"molecule": "O=C(O[C@H]1C[C@H]2CC[C@@H](C1)[N+]21CCCC1)C(O)(c1ccccc1)c1ccccc1.[Cl-] [TROSPIUM CHLORIDE]", "Bacterial Biotransformation": "Compound NOT metabolized"}
